target: opiate receptor (Rattus norvegicus); construct: from tissue; assay: biochemical; type: binding; conditions: -NaCl; read-out: Opiate Receptor Inhibition 1C50
Sequence (P33535 whole entry): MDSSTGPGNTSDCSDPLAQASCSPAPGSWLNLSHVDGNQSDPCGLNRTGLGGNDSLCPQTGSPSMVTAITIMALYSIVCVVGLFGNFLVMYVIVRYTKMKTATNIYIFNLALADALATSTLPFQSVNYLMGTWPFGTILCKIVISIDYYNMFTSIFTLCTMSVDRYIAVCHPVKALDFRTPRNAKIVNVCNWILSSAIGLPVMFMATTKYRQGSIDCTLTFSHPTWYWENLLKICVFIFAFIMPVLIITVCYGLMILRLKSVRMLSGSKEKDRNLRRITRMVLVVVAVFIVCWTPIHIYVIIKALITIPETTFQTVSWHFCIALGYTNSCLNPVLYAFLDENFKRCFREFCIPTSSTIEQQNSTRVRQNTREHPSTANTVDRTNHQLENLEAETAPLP
pIC50: −log10 of the molar value.
Assign y whenever pIC50 does not fall below 8; assign n whenever it does.

# compound, testTarget, class
measured = [
    ("CC[C@@H](C)N1CC[C@]23c4c5ccc(O)c4O[C@H]2[C@@H](O)C=C[C@H]3[C@H]1C5 [N--sec-butyl normorphine (R), reference compound]", "opiate receptor (Rattus norvegicus)", "n"),
    ("CC(C1CC1)N1CC[C@]23c4c5ccc(O)c4O[C@H]2[C@@H](O)C=C[C@H]3[C@H]1C5 (single isomer, unassigned; diastereomer a)", "opiate receptor (Rattus norvegicus)", "y"),
    ("CC(C1CC1)N1CC[C@]23c4c5ccc(O)c4O[C@H]2[C@@H](O)C=C[C@H]3[C@H]1C5 (mixture of isomers) [N-α-Methylcyclopropylmethylnormorphine]", "opiate receptor (Rattus norvegicus)", "y"),
    ("CC[C@H](C)N1CC[C@]23c4c5ccc(O)c4O[C@H]2[C@@H](O)C=C[C@H]3[C@H]1C5 [N--sec-butyl normorphine (S), reference compound]", "opiate receptor (Rattus norvegicus)", "n"),
]
